Reported growth inhibition values for the following compounds.
test: NCI Yeast Anticancer Drug Screen. Data for the rad18 strain (AID 177); conditions: S. cerevisiae rad18 mutant growth inhibition; at 1.2 µM; hits give high values
This is part of a sample that, as a whole, favours compounds with a hit. Of some 79,000 tested, about 15% had one in any assay.
Express it in %; write the number only.

Consider the reported growth inhibition for these compounds:
[[record]]
compound = "CCOc1ccc(N)c(S)c1"
measured_number = 1

[[record]]
compound = "COc1cc(C2C3=C(COC3=O)Oc3cc4c(cc32)OCO4)cc(OC)c1O (configuration not stated)"
measured_number = 11

[[record]]
compound = "CS(=O)(=O)O.[Ag]"
measured_number = 76

[[record]]
compound = "CCOC(=O)C(Cc1c2ccccc2cc2ccccc12)(NC(C)=O)C(=O)OCC"
measured_number = -5

[[record]]
compound = "CC(=O)O/N=C1C=C/C(=C(/C#N)c2ccccc2)C=C/1C"
measured_number = 12


Could you now look at the following compound, please?
stdin: State the recorded growth inhibition for this entry: O=C1C2=C(c3ccccc31)C(c1ccccc1)N1C(=O)CSC1=N2 (configuration not stated)
stdout: -1
